The values you see were collected from paper PMC11672801.

System: P. aeruginosa (ATCC 10145)
measurement.description: Antibacterial broth microdilution MIC assay
Type: cell-based, Pseudomonas aeruginosa
experimental.conditions: >99% inhibition of growth, MH broth, 20-22 h, 37 °C
Where a SMILES comes first, the peptide text is derived from it. [ ]: non-standard residue; d: D form. The star is where a group is joined. Levofloxacinoyl = C[C@H]1COc2c(N3CCN(C)CC3)c(F)cc3c(=O)c(C(=O)*)cn1c23; βAla = NCCC(=O)O
Measured MIC accompanies every entry in the list below.
measure: MIC (µM)

molecule="CC[C@H](C)[C@H](NC(=O)[C@@H](NC(=O)CNC(=O)[C@H](CCSC)NC(=O)[C@H](CC(C)C)NC(=O)CNC(=O)[C@H](CCCCN)NC(=O)[C@H](CC(C)C)NC(=O)[C@@H](N)Cc1ccccc1)C(C)C)C(=O)N[C@H](C)C(=O)N[C@@H](CO)C(=O)N[C@@H](CC(C)C)C(=O)N[C@@H](Cc1ccccc1)C(=O)N[C@@H](CCCCN)C(N)=O [RSP-1 (3)] (H-FLKGLMGVI[dA]SLFK-NH2)" unit_of_measurement=µM readout_relation== quantitative_readout=50
molecule="CC[C@H](C)[C@H](NC(=O)[C@@H](NC(=O)CNC(=O)[C@H](CCSC)NC(=O)[C@H](CC(C)C)NC(=O)CNC(=O)[C@H](CCCCN)NC(=O)[C@H](CC(C)C)NC(=O)[C@H](Cc1ccccc1)NC(=O)CCNC(=O)c1cn2c3c(c(N4CCN(C)CC4)c(F)cc3c1=O)OC[C@@H]2C)C(C)C)C(=O)N[C@H](C)C(=O)N[C@@H](CO)C(=O)N[C@@H](CC(C)C)C(=O)N[C@@H](Cc1ccccc1)C(=O)N[C@@H](CCCCN)C(N)=O [RLFP-3 (6)] ({Levofloxacinoyl-βAla}-FLKGLMGVI[dA]SLFK-NH2)" unit_of_measurement=µM readout_relation== quantitative_readout=12.5
molecule="CC[C@H](C)[C@H](NC(=O)[C@@H](NC(=O)CNC(=O)[C@H](CCSC)NC(=O)[C@H](CC(C)C)NC(=O)CNC(=O)[C@H](CCCCN)NC(=O)[C@H](CC(C)C)NC(=O)[C@@H](N)Cc1ccccc1)C(C)C)C(=O)N[C@H](C)C(=O)N[C@@H](CO)C(=O)N[C@@H](CC(C)C)C(=O)N[C@@H](Cc1ccccc1)C(=O)N[C@@H](CCCCNC(=O)c1cn2c3c(c(N4CCN(C)CC4)c(F)cc3c1=O)OC[C@@H]2C)C(N)=O [RLFP-1 (4)] (H-FLKGLMGVI[dA]SLFK(Levofloxacinoyl)-NH2)" unit_of_measurement=µM readout_relation=> quantitative_readout=200

----------
Test system: Human breast cancer (MCF-7) cells
measurement.description: cells
Type: cell-based
experimental.conditions: Homo sapiens, MCF7; MTT, 24 h exposure; read-out: IC50 on Breast Cancer (MCF-7)
Method: Human breast cancer (MCF-7) and human cervical cancer (HeLa) cells were obtained from the cell culture bank of PCMD in ICCBS, University of Karachi. […] The antiproliferative activity of the samples was determined by a MTT assay. […] After one minute of shaking, the absorbance was recorded at 540 nm in microplate reader (Multiskan GO, ThermoScientific, Waltham, MA, USA). […]
measure: IC50

compound="C[C@H]1COc2c(N3CCN(C)CC3)c(F)cc3c(=O)c(C(=O)O)cn1c23 [Levofloxacin, reference compound]" result="> 100 µM"
